- MEASUREMENT DESCRIPTION: Further in vitro degradation assay, dog primary hepatocytes
- CONDITION NOTES: hepatocytes
MEASUREMENT TYPE: half-life

input: Any idea what its half-life is? The compound is O=c1ccc2ccc(O)cc2o1 [7-Hydroxycoumarin]
output: 20.4 min

// next entry
input: Any idea what its half-life is? The compound is O=C(CNC(=O)c1ccc(C2=NO[C@](c3cc(Cl)cc(C(F)(F)F)c3)(C(F)(F)F)C2)c2ccccc12)NCC(F)(F)F (racemic)
output: > 217 min

---

- System: Aedes aegypti (New Orleans)
- MEASUREMENT DESCRIPTION: Membrane feeding, Aedes aegypti New Orleans strain
- Format: in vivo
- CONDITION NOTES: 24 h, read-out: IC50 [95% CI]
MEASUREMENT TYPE: pIC50
Notebook: values listed as pIC50 are -log10 of the concentration (mol/L).

input: Any idea what its pIC50 is? The molecule is O=C(CNC(=O)c1ccc(C2=NO[C@](c3cc(Cl)cc(C(F)(F)F)c3)(C(F)(F)F)C2)c2ccccc12)NCC(F)(F)F (racemic) [Afoxolaner, afoxolaner]
output: 7.00

---

- Tested on: Anopheles gambiae Kisumu
- MEASUREMENT DESCRIPTION: WHO paper contact assay, Anopheles gambiae Kisumu
- Type: in vivo
- CONDITION NOTES: papers 0.75% permethrin, 0.05% deltamethrin, 4% DDT, 0.1% bendiocarb, 1.0% fenitrothion, 4% dieldrin
MEASUREMENT TYPE: percentage of survival
# output: numeric value plus its unit

input: Any idea what its percentage of survival is? The compound is "CC1(C)[C@H](C(=O)O[C@H](C#N)c2cccc(Oc3ccccc3)c2)[C@@H]1C=C(Br)Br"
output: 100%

Continuing:
input: Any idea what its percentage of survival is? The compound is "COP(=S)(OC)Oc1ccc([N+](=O)[O-])c(C)c1"
output: 100%

input: What about this compound? "ClC1=C(Cl)[C@]2(Cl)[C@@H]3[C@@H]4C[C@@H]([C@H]5O[C@@H]45)[C@@H]3[C@@]1(Cl)C2(Cl)Cl"
output: 96%

input: What about this compound? "Clc1ccc(C(c2ccc(Cl)cc2)C(Cl)(Cl)Cl)cc1"
output: 100%

input: What about this compound? CC1(C)C(C=C(Cl)Cl)C1C(=O)OCc1cccc(Oc2ccccc2)c1 (stereo not drawn)
output: 100%

input: What about this compound? "CNC(=O)Oc1cccc2c1OC(C)(C)O2"
output: 100%

---

- MEASUREMENT DESCRIPTION: Hepatocyte stability assay, dog
- Assay type: in vitro ADME
- CONDITION NOTES: Beagle, dog, hepatocytes
MEASUREMENT TYPE: half-life at 1 μM

input: Any idea what its half-life at 1 μM is? The molecule is "O=C(CNC(=O)c1ccc(C2=NO[C@@](c3cc(Cl)cc(Cl)c3)(C(F)(F)F)C2)c2ccccc12)NCC(F)(F)F"
output: 41 min

---

- MEASUREMENT DESCRIPTION: Further in vitro degradation assay, dog primary hepatocytes
- CONDITION NOTES: cryopreserved hepatocytes
MEASUREMENT TYPE: hepatocyte CLint

input: Any idea what its hepatocyte CLint is? The compound is "Cc1cc(C2=NO[C@](c3cc(Cl)cc(Cl)c3)(C(F)(F)F)C2)ccc1C(=O)NCC(=O)NCC(F)(F)F"
output: < 6.4 µL/min/1e6 cells
